assay: Partition equilibrium in the presence of surfactants (TBA, CTA, TMA); type: physicochemical; conditions: surfactant CTA, 1000 mg·L^−1
PARAMETER: Increase in migration to the aqueous phase with CTA

O=C(O)CCCCc1ccccc1 [5-Phenylpentanoic Acid, 5-phenylpentanoic acid]: ~500%
O=C(O)c1ccccc1 [Benzoic Acid, benzoic acid]: ~10%

Read the next record carefully.
// recorded Increase in migration to the aqueous phase with CTA for CCCCC(=O)O [Pentanoic Acid, pentanoic acid] : ~10%

* * *

assay: Partition equilibrium in reactor pressurized with CO2, in presence and absence of alkalinity (NaHCO3, Na2CO3), back titration; conditions: Na2CO3 + NaHCO3; 25° C. and 1.0 MPa CO2
PARAMETER: Migration (% mol)
Answers are plain numbers, in % mol.

Examples from the recorded data:
CCCCC(=O)O: 100
O=C(O)c1ccccc1: 100
O=C(O)CCCCc1ccccc1: 100.0

// recorded Migration for O=C(O)CCCCC1CCCCC1 : 100.0
